# TARGET_DESC: T1, 006 PSMA Fab
# T1 construct: Biotinylated and captured on neutravidin-coated plates in the phage ELISA; also called Anti-PSMA Fab
# EXPERIMENT_NOTES: clonal phage ELISA on PSMA Fab-coated plate; competitor: PSMA antigen pre-incubated in the well
Binarize phage binding ELISA signal in presence of PSMA at 0.08; below is YES, at or above is NO.

The examples below pair each entry with its known result.
[[record]]
binder = "VVKWCIPTWMCQTL [Phage-2378]"
answer_label = "NO"

[[record]]
binder = "TIKWCTPPWMCIMN [Phage-2388]"
answer_label = "NO"

[[record]]
binder = "HDKLCIPLWMCDGV [Phage-2377]"
answer_label = "NO"


Query :: Field: below-cutoff. Rule: recorded phage binding ELISA signal in presence of PSMA strictly less than 0.08. Subject: FYKWCTPEWMCTVN [Phage-2384]
Result :: NO

Query :: Quick one: FEHWCTPPWMCFSS [Phage-2383]
Result :: YES

Query :: Quick one: MGNWCIPEWMCWGT [Phage-2374]
Result :: YES

Query :: Quick one: DAKWCIPDWMCYGF [Phage-2387]
Result :: NO

Origin of the recorded values: patent US20260242478A1
